Origin of values: ChEMBL document CHEMBL2321779

- experimental-system: UniProt P14902
- measurement-protocol: Inhibition of human recombinant N-terminus 6X-histidine-tagged indoleamine 2,3-dioxygenase expressed in Escherichia coli assessed as inhibition of L-tryptophan to N-formylkynurenine formation measured as residual enzyme activity at 1 uM incubated for 10 mins prior to substrate addition measured …; values are per cent of control
reported-endpoint: residual activity (%)

[
  {
    "molecule": "Cc1ccc2oc3cc(=O)c(N)cc-3nc2c1",
    "residual activity / %": 100
  },
  {
    "molecule": "Nc1cc2nc3c(O)cccc3oc-2cc1=O",
    "residual activity / %": 100
  },
  {
    "molecule": "CC(=O)Nc1cc2nc3cc(CO)ccc3oc-2cc1=O",
    "residual activity / %": 82
  },
  {
    "molecule": "Cc1c2nc3c(C)cccc3oc-2cc(=O)c1N",
    "residual activity / %": 100
  },
  {
    "molecule": "COC(=O)c1c2nc3c(C(=O)OC)ccc(C)c3oc-2c(C)c(=O)c1N",
    "residual activity / %": 29
  },
  {
    "molecule": "CC(=O)Nc1cc2nc3c(O)cccc3oc-2cc1=O",
    "residual activity / %": 99
  },
  {
    "molecule": "Nc1cc2nc3ccccc3oc-2cc1=O",
    "residual activity / %": 94
  },
  {
    "molecule": "COC(=O)c1c2nc3cc(CO)ccc3oc-2cc(=O)c1N",
    "residual activity / %": 75
  },
  {
    "molecule": "COC(=O)c1c2nc3c(C(=O)OC)cccc3oc-2cc(=O)c1N",
    "residual activity / %": 60
  }
]

(A) Nc1c(C(=O)O)c2nc3c(C(=O)O)cccc3oc-2cc1=O [CINNABARINIC ACID]
(B) Nc1cc2nc3cc(CO)ccc3oc-2cc1=O
Exercise: Thinking about recorded residual activity values, which is higher, A or B ? I would appreciate it if you answered with the label of your choice.
Key: B
(B: 87%, A: 23%)

----------
- experimental-system: Indoleamine 2,3-dioxygenase 1 (Homo sapiens, UniProt P14902)
- Sequence (P14902 whole entry, looked up): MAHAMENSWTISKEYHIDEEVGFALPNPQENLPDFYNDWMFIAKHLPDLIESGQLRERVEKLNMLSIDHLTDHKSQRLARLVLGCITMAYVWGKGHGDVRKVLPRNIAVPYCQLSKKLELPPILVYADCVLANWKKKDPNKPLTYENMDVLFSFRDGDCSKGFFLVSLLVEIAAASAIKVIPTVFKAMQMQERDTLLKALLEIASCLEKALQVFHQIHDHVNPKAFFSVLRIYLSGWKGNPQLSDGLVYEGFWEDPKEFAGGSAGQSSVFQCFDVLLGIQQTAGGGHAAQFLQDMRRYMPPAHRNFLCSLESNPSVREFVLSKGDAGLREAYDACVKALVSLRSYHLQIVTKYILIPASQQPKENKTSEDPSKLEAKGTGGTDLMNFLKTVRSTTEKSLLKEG
- measurement-protocol: Inhibition of human recombinant N-terminus 6X-histidine-tagged indoleamine 2,3-dioxygenase expressed in Escherichia coli assessed as inhibition of L-tryptophan to N-formylkynurenine formation measured as residual enzyme activity at 10 uM incubated for 10 mins prior to substrate addition measured …; values are per cent of control
reported-endpoint: residual activity (%)

[
  {
    "molecule": "Cc1ccc2oc3cc(=O)c(N)cc-3nc2c1",
    "residual activity [%]": 91
  },
  {
    "molecule": "Nc1cc2nc3ccccc3oc-2cc1=O",
    "residual activity [%]": 74
  },
  {
    "molecule": "COC(=O)c1c2nc3c(C(=O)OC)cccc3oc-2cc(=O)c1N",
    "residual activity [%]": 30
  }
]

(I) COC(=O)c1c2nc3cc(CO)ccc3oc-2cc(=O)c1N
(II) Nc1cc2nc3c(O)cccc3oc-2cc1=O
Exercise: Of I and II , whose reported residual activity is numerically smaller? Return value: the label identifying the chosen record.
Key: I
(I: 34%, II: 97%)

----------
- experimental-system: UniProtKB P14902
- measurement-protocol: Inhibition of human recombinant N-terminus 6X-histidine-tagged indoleamine 2,3-dioxygenase expressed in Escherichia coli assessed as inhibition of L-tryptophan to N-formylkynurenine formation measured as residual enzyme activity at 10 uM incubated for 10 mins prior to substrate addition measured …; values are per cent of control
reported-endpoint: residual activity (%)

Here's what some known entries look like.
[
  {
    "compound": "Cc1c2nc3c(C)cccc3oc-2cc(=O)c1N",
    "reported-endpoint": "residual activity",
    "unit-string": "%",
    "result-number": 95
  },
  {
    "compound": "Nc1cc2nc3cc(CO)ccc3oc-2cc1=O",
    "reported-endpoint": "residual activity",
    "unit-string": "%",
    "result-number": 80
  },
  {
    "compound": "CC(=O)Nc1cc2nc3cc(CO)ccc3oc-2cc1=O",
    "reported-endpoint": "residual activity",
    "unit-string": "%",
    "result-number": 74
  }
]

(P) CC(=O)Nc1cc2nc3c(O)cccc3oc-2cc1=O
(Q) Nc1c(C(=O)O)c2nc3c(C(=O)O)cccc3oc-2cc1=O [CINNABARINIC ACID]
(R) COC(=O)c1c2nc3c(C(=O)OC)ccc(C)c3oc-2c(C)c(=O)c1N
Exercise: Exam item: list the entries in increasing order of residual activity. Reply with the labels, ordered as the question asks.
Key: Q, R, P
